Tested on: IGROV-ET
protocolDescription: SRB colorimetric assay of cell growth and viability, IGROV-ET
Format: cell-based, human
studyConditions: 48 hours exposure; read-out: LC50 IGROV-ET
Where a SMILES comes first, the peptide text is derived from it. Bridges are numbered along the chain shown (N, C = ends). [ ]: non-standard residue; d: D form. The star is where a group is joined. d(aIle) = CC[C@H](C)[C@@H](N)C(=O)O; d(aThr) = C[C@@H](O)[C@@H](N)C(=O)O; Hexanoyl(5-Me) = CC(C)CCCC(=O)*; Orn = NCCC[C@H](N)C(=O)O; Dhb = C/C=C(\N)C(=O)O
Reported log10(CC50) by item:
assayReadout: log10(CC50) (log10 of the value in µM)

| molecule | testTarget | log10(CC50) |
| --- | --- | --- |
| CC[C@H](C)[C@@H](NC(=O)[C@H](CCCN)NC(=O)[C@H]1CCCN1C(=O)[C@H](NC(=O)[C@@H](NC(=O)[C@@H](NC(=O)[C@H](NC(=O)CCCC(C)C)C(C)C)[C@@H](C)O)C(C)C)C(C)C)C(=O)N[C@H]1C(=O)N[C@H]([C@@H](C)CC)C(=O)N[C@H](C(C)C)C(=O)N[C@@H](Cc2ccccc2)C(=O)NCC(=O)N[C@@H](C(C)C)C(=O)O[C@@H]1C [Compound 65, [Gly^2]-KF] ({Hexanoyl(5-Me)}-[dV]TV[dV][dP][Orn][d(aIle)][d(aThr)][d(aIle)][dV]FGV; ester 8-C) | IGROV-ET | 0.55 |
| C/C=C1\NC(=O)[C@H](Cc2ccccc2)NC(=O)[C@@H](C(C)C)NC(=O)[C@@H]([C@@H](C)CC)NC(=O)[C@H](NC(=O)[C@H](NC(=O)[C@H](CCCN)NC(=O)[C@H]2CCCN2C(=O)[C@H](NC(=O)[C@@H]2CCCN2C(=O)[C@@H](NC(=O)[C@H](NC(=O)CCCC(C)C)C(C)C)[C@@H](C)O)C(C)C)[C@@H](C)CC)[C@@H](C)OC(=O)[C@H](C(C)C)NC1=O [Compound 47, [Pro^11]-KF] ({Hexanoyl(5-Me)}-[dV]TP[dV][dP][Orn][d(aIle)][d(aThr)][d(aIle)][dV]F[Dhb]V; ester 8-C) | IGROV-ET | 0.83 |
| C/C=C1\NC(=O)[C@H](Cc2ccccc2)NC(=O)[C@@H](C(C)C)NC(=O)[C@@H](C(C)CC)NC(=O)[C@H](NC(=O)[C@H](NC(=O)[C@H](CCCN)NC(=O)[C@H]2CCCN2C(=O)[C@H](NC(=O)[C@@H](NC(=O)[C@@H](NC(=O)[C@H](NC(=O)CCC(C)CC)C(C)C)C(C)O)C(C)C)C(C)C)C(C)CC)C(C)OC(=O)[C@H](C(C)C)NC1=O (stereo partly drawn) | IGROV-ET | -0.21 |
| C/C=C1\NC(=O)[C@H](Cc2ccccc2)NC(=O)[C@@H](C(C)C)NC(=O)[C@@H]([C@@H](C)CC)NC(=O)[C@H](NC(=O)[C@H](NC(=O)[C@H](CCCN)NC(=O)[C@H]2CCCN2C(=O)[C@H](NC(=O)[C@@H](NC(=O)[C@H](C)NC(=O)CCCC(C)C)C(C)C)C(C)C)[C@@H](C)CC)[C@@H](C)OC(=O)[C@H](C(C)C)NC1=O [Compound 52, [Ala^12, noD-Val^13]-KF] ({Hexanoyl(5-Me)}-AV[dV][dP][Orn][d(aIle)][d(aThr)][d(aIle)][dV]F[Dhb]V; ester 7-C) | IGROV-ET | 0.87 |
| C/C=C1\NC(=O)[C@H](Cc2ccccc2)NC(=O)[C@@H](C(C)C)NC(=O)[C@@H]([C@@H](C)CC)NC(=O)[C@H](NC(=O)[C@H](NC(=O)[C@H](CCCN)NC(=O)[C@H]2CCCN2C(=O)[C@H](NC(=O)[C@H](Cc2ccccc2)NC(=O)[C@@H](NC(=O)[C@H](NC(=O)CCCC(C)C)C(C)C)[C@@H](C)O)C(C)C)[C@@H](C)CC)[C@@H](C)OC(=O)[C@H](C(C)C)NC1=O [Compound 43, [Phe^11]-KF] ({Hexanoyl(5-Me)}-[dV]TF[dV][dP][Orn][d(aIle)][d(aThr)][d(aIle)][dV]F[Dhb]V; ester 8-C) | IGROV-ET | 0.40 |
| C/C=C1\NC(=O)[C@H](Cc2ccccc2)NC(=O)[C@@H](C(C)C)NC(=O)[C@@H]([C@@H](C)CC)NC(=O)[C@H](NC(=O)[C@H](NC(=O)[C@H](CCCN)NC(=O)[C@H]2CCCN2C(=O)[C@H](NC(=O)[C@@H](NC(=O)[C@@H](NC(=O)[C@H](NC(=O)CC[C@H](C)CC)C(C)C)[C@@H](C)O)C(C)C)C(C)C)[C@@H](C)CC)[C@@H](C)OC(=O)[C@H](C(C)C)NC1=O [Compound 16, [(4R)-MeHex^14]-KF] | IGROV-ET | 0.51 |
| C/C=C1\NC(=O)[C@H](Cc2ccccc2)NC(=O)[C@@H](C(C)C)NC(=O)[C@@H]([C@@H](C)CC)NC(=O)[C@H](NC(=O)[C@H](NC(=O)[C@H](CCCN)NC(=O)[C@H]2CCCN2C(=O)[C@H](NC(=O)[C@@H](NC(=O)[C@@H](NC(=O)[C@@H](CCC(N)=O)NC(=O)CCCC(C)C)[C@@H](C)O)C(C)C)C(C)C)[C@@H](C)CC)[C@@H](C)OC(=O)[C@H](C(C)C)NC1=O [Compound 40, [D-Gln^13]-KF] | IGROV-ET | 0.58 |
| C/C=C1\NC(=O)[C@H](Cc2ccccc2)NC(=O)[C@@H](C(C)C)NC(=O)[C@@H]([C@@H](C)CC)NC(=O)[C@H](NC(=O)[C@H](NC(=O)[C@H](CCCN)NC(=O)[C@H]2CCCN2C(=O)[C@H](NC(=O)[C@H](CCC(=O)O)NC(=O)[C@@H](NC(=O)[C@H](NC(=O)CCCC(C)C)C(C)C)[C@@H](C)O)C(C)C)[C@@H](C)CC)[C@@H](C)OC(=O)[C@H](C(C)C)NC1=O [Compound 51, [Glu^11]-KF] ({Hexanoyl(5-Me)}-[dV]TE[dV][dP][Orn][d(aIle)][d(aThr)][d(aIle)][dV]F[Dhb]V; ester 8-C) | IGROV-ET | 0.82 |
| C/C=C1\NC(=O)[C@H](Cc2ccccc2)NC(=O)[C@@H](C(C)C)NC(=O)[C@@H]([C@@H](C)CC)NC(=O)[C@H](NC(=O)[C@H](NC(=O)[C@H](CCCN)NC(=O)[C@H]2CCCN2C(=O)[C@H](NC(=O)[C@@H](NC(=O)[C@@H](NC(=O)[C@H](NC(=O)CCCCC(C)=O)C(C)C)[C@@H](C)O)C(C)C)C(C)C)[C@@H](C)CC)[C@@H](C)OC(=O)[C@H](C(C)C)NC1=O [Compound 27, [6-OHep^14]-KF] | IGROV-ET | 0.83 |
